target of assay: human NaV subtype, like NaV 1.7 (Homo sapiens, UniProt Q15858)
Sequence (Q15858 whole entry): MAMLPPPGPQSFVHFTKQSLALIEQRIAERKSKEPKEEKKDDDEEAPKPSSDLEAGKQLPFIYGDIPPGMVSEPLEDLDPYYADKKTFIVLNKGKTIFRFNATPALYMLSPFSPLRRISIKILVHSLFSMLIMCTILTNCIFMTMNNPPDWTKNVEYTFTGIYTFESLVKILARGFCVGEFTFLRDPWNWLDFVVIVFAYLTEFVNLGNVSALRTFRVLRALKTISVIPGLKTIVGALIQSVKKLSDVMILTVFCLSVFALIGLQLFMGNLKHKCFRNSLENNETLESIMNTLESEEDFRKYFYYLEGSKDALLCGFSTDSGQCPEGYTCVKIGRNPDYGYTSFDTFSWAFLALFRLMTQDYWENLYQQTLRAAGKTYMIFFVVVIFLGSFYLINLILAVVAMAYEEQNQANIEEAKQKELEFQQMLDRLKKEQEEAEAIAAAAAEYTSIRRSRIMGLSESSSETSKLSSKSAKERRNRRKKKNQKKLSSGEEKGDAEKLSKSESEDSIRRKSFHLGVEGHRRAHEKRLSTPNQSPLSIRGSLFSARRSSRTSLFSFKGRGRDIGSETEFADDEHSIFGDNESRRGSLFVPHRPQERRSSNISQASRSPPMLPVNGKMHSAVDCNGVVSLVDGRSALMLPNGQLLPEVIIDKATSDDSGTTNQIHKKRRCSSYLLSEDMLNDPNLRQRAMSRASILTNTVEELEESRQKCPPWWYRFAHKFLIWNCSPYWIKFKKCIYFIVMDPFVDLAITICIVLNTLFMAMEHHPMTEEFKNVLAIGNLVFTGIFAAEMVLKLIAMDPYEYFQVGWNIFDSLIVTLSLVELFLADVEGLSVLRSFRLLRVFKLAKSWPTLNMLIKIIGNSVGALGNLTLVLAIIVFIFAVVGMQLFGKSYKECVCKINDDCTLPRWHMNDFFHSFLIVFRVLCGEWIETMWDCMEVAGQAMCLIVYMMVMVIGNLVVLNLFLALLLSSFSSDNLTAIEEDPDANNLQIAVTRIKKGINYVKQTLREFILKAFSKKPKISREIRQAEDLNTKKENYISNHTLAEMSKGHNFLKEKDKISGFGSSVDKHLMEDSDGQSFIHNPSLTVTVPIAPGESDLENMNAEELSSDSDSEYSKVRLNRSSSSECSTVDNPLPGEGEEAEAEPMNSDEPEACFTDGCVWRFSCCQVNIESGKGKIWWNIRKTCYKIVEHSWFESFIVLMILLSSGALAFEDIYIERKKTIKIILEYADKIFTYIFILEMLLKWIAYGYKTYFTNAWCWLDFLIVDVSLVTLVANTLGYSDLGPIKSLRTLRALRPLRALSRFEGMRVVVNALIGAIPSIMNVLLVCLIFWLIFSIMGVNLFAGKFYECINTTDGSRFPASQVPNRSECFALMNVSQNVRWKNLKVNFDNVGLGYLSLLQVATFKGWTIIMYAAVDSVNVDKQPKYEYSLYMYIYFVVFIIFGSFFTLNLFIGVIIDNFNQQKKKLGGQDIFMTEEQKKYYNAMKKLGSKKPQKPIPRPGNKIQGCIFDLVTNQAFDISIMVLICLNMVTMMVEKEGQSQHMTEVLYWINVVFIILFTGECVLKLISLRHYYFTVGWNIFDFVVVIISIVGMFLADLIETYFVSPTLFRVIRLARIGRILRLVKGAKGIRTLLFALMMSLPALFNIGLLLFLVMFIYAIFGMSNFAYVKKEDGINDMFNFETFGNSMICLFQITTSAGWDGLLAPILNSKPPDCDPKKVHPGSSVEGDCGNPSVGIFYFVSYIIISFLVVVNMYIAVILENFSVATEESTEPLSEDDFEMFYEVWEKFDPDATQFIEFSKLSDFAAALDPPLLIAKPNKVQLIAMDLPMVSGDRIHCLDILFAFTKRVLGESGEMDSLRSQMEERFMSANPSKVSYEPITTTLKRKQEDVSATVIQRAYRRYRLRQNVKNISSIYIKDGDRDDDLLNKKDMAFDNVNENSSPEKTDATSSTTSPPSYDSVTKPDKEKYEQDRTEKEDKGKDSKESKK
protocol notes: E-VIPR optical membrane potential assay with electrical stimulation
Type: cell-based
measurement parameters: active against one or more sodium channels; assay and NaV subtype not specified for Table 3; read-out: IC50 Binned Activity Data
measured property: IC50

Known IC50 results, listed for orientation:
CC(C)Oc1ccc(C(=O)N2CCC3(CC2)CN(CC(F)F)CC(c2ccc(F)cc2)O3)cc1F (centres unmarked): < 2 µM
CC(C)Oc1ccc(C(=O)N2CCC3(CC2)CN(CC(F)(F)F)CC(c2ccccc2)O3)cc1CO (centres unmarked): < 2 µM

Report IC50 for COC(=O)C(C)(C)c1ccc(C(=O)N2CCC3(CC2)CN(CC(F)(F)F)CC(c2ccccc2)O3)cc1OC (centres unmarked) please.
2 to 5 µM

IC50 lookup needed for CCC1CN(c2ccccn2)CC2(CCN(C(=O)c3ccc(C4(O)CCCC4)c(C)c3)CC2)O1 (centres unmarked) , thanks.
< 2 µM

Given Cc1cc(C(=O)N2CCC3(CC2)CN(CC(F)(F)F)[C@H](C)[C@@H](c2ccccc2)O3)ccc1OC(C)C , state its recorded IC50.
2 to 5 µM

Which measured IC50 value corresponds to COCC1CN(c2ncccn2)CC2(CCN(C(=O)c3ccc(S(=O)(=O)NC4CC4)cc3)CC2)O1 (centres unmarked) ?
> 5 µM

# input molecule: Cc1cc(C(=O)N2CCC3(CC2)CN(CC(F)(F)F)CC(CCO)O3)ccc1OC(C)C (centres unmarked) ; wanted: its IC50
2 to 5 µM

Please look up its IC50: CCN1CC(c2ccccc2)OC2(CCN(C(=O)c3ccc(OC(C)C)nc3)CC2)C1 (centres unmarked)
> 5 µM
